Data origin: patent US5919771A

Each item that follows carries a reported Minimal Inhibitory Concentration (MIC) SA 446.
# Tested on: Staphylococcus aureus 446
# MEASUREMENT NOTES: MIC, standard broth micro-dilution assay, SA 446
# Type: cell-based
# Description: The antibacterial efficacy of the present compounds is illustrated by Table II. The minimal inhibitory concentrations (MICs) were determined using a standard broth micro-dilution assay.

These solved cases illustrate the format of a correct answer.
COc1ccc(NC(=S)N(C)C(CC(C)C)C(=O)NC2C(=O)NC(CC(N)=O)C(=O)NC3C(=O)NC4C(=O)NC(C(=O)NC(C(=O)O)c5cc(O)cc(O)c5-c5cc4ccc5O)C(OC4CC(C)(N)C(O)C(C)O4)c4ccc(c(Cl)c4)Oc4cc3cc(c4OC3OC(CO)C(O)C(O)C3OC3CC(C)(NCc4ccc(Oc5ccccc5)cc4)C(O)C(C)O3)Oc3ccc(cc3Cl)C2O)cc1 (stereo not drawn) [Example 11]
4
CC(C)CC(C(=O)NC1C(=O)NC(CC(N)=O)C(=O)NC2C(=O)NC3C(=O)NC(C(=O)NC(C(=O)O)c4cc(O)cc(O)c4-c4cc3ccc4O)C(OC3CC(C)(N)C(O)C(C)O3)c3ccc(c(Cl)c3)Oc3cc2cc(c3OC2OC(CO)C(O)C(O)C2OC2CC(C)(N)C(O)C(C)O2)Oc2ccc(cc2Cl)C1O)N(C)C(=S)Nc1cccc2ccccc12 (stereo not drawn) [Example 5, N^LEU -(1-NAPHTHYLTHIOCARBAMOYL)A82846B]
8
CC(C)C[C@H](C(=O)N[C@H]1C(=O)N[C@@H](CC(N)=O)C(=O)N[C@H]2C(=O)N[C@H]3C(=O)N[C@H](C(=O)N[C@H](C(=O)O)c4cc(O)cc(O)c4-c4cc3ccc4O)[C@H](O[C@H]3C[C@](C)(N)[C@@H](O)[C@H](C)O3)c3ccc(c(Cl)c3)Oc3cc2cc(c3O[C@@H]2O[C@H](CO)[C@@H](O)[C@H](O)[C@H]2O[C@H]2C[C@](C)(NCc3ccc(-c4ccccc4)cc3)[C@@H](O)[C@H](C)O2)Oc2ccc(cc2Cl)[C@H]1O)N(C)C(=S)Nc1ccccc1 [Example 4]
2

Supply reported Minimal Inhibitory Concentration (MIC) SA 446 belonging to this compound: CC(C)CC(C(=O)NC1C(=O)NC(CC(N)=O)C(=O)NC2C(=O)NC3C(=O)NC(C(=O)NC(C(=O)O)c4cc(O)cc(O)c4-c4cc3ccc4O)C(OC3CC(C)(N)C(O)C(C)O3)c3ccc(c(Cl)c3)Oc3cc2cc(c3OC2OC(CO)C(O)C(O)C2OC2CC(C)(NCc3ccc(Oc4ccccc4)cc3)C(O)C(C)O2)Oc2ccc(cc2Cl)C1O)N(C)C(=S)Nc1ccc(N(C)C)cc1 (stereo not drawn) [Example 19]
2

Supply reported Minimal Inhibitory Concentration (MIC) SA 446 belonging to this compound: CC(C)CC(C(=O)NC1C(=O)NC(CC(N)=O)C(=O)NC2C(=O)NC3C(=O)NC(C(=O)NC(C(=O)O)c4cc(O)cc(O)c4-c4cc3ccc4O)C(OC3CC(C)(N)C(O)C(C)O3)c3ccc(c(Cl)c3)Oc3cc2cc(c3OC2OC(CO)C(O)C(O)C2OC2CC(C)(N)C(O)C(C)O2)Oc2ccc(cc2Cl)C1O)N(C)C(=S)Nc1ccccc1 (stereo not drawn) [Example 1, N^LEU -(PHENYLTHIOCARBAMOYL)A82846B]
8

Supply reported Minimal Inhibitory Concentration (MIC) SA 446 belonging to this compound: CC(C)CC(C(=O)NC1C(=O)NC(CC(N)=O)C(=O)NC2C(=O)NC3C(=O)NC(C(=O)NC(C(=O)O)c4cc(O)cc(O)c4-c4cc3ccc4O)C(OC3CC(C)(N)C(O)C(C)O3)c3ccc(c(Cl)c3)Oc3cc2cc(c3OC2OC(CO)C(O)C(O)C2OC2CC(C)(N)C(O)C(C)O2)Oc2ccc(cc2Cl)C1O)N(C)C(=O)Nc1ccccc1 (stereo not drawn) [Example 23, N^LEU -(PHENYLCARBAMOYL)A82846B]
4
